Taken from patent US11466011B2.

List of IC50 tested on Leishmania donovani (Ld) N-myristoyl transferase (Leishmania donovani, UniProt D0AB09).
Sequence (D0AB09 entry or part of it): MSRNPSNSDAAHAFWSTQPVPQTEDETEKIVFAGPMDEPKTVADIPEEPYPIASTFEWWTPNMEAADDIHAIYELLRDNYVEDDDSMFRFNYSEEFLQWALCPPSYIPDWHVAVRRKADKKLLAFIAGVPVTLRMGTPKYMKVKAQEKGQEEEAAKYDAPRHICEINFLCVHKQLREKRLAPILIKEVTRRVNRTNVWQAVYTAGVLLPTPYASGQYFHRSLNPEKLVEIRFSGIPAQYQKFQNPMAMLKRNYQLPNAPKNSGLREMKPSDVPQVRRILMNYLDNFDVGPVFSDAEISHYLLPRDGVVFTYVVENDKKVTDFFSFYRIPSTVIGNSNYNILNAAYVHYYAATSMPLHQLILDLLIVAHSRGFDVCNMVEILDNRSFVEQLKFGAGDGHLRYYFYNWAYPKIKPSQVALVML
parameter: IC50

* Cc1nn(C)c(C)c1CCOc1cc(F)ccc1-c1ccc2[nH]nc(CN(C)C)c2c1 [Example 7] | 1 to 100 nM
* CN(C)Cc1n[nH]c2ccc(-c3ccc(F)cc3OCCc3cccnc3)cc12 [Example 8] | 1 to 100 nM

----------
# measured-on: Leishmania major (Lm) N-myristoyl transferase (Leishmania major)
# Sequence (Q4Q5S8 1-421): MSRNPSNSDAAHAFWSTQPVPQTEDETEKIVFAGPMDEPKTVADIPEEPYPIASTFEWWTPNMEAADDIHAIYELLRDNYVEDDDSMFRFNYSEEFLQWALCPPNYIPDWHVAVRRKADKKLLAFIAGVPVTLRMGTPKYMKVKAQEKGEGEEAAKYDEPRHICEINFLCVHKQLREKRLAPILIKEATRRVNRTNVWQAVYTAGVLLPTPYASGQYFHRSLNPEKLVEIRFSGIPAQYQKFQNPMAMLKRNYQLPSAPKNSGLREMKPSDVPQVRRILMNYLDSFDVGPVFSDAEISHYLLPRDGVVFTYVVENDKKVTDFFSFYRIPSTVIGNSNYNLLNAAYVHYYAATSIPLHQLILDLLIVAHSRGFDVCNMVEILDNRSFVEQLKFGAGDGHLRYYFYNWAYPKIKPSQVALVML
pIC50: −log10 of the molar value.
parameter: pIC50

* CN(C)Cc1n[nH]c2ccc(-c3ccc(F)cc3OCCc3cccnc3)cc12 | 7.00 to 9.00
